- Tested system: human liver FBPase (Homo sapiens, UniProt P09467)
- Sequence (P09467 2-338 limits assumed): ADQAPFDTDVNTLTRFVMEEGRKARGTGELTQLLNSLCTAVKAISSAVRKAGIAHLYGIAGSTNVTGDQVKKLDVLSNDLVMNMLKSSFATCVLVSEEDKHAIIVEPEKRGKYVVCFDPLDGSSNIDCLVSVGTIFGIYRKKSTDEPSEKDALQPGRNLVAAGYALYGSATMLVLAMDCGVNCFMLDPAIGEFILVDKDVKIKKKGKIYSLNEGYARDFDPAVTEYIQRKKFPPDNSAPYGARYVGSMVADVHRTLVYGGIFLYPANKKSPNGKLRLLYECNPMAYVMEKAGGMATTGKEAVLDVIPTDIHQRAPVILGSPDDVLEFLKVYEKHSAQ
- Test protocol: FBPase assay (inorganic phosphate release, malachite green)
- Study conditions: recombinant human liver FBPase, 50 μM fructose-1,6-bisphosphate, read-out at 620 nm
- Protocol: The following tests were carried out for evaluating the inhibitory activity of the compounds of the present invention against human liver FBPase (Swissprot Data base reference PO9467, entry F16P_HUMAN). Enzyme preparation: Human liver FBPase cDNA (NM_000507) was purchased from Origene Technologies, Inc, subcloned in a vector for expression in E. Coli., and sequenced. […] Purity of the enzyme preparation was >90% as assessed by Mass spectrometry. […]
Please provide measured IC50 for the entries that follow.

I would be grateful if you could share the reported IC50 for COc1ccc(-c2sc(S(=O)(=O)NC(=O)Nc3ncc(Br)s3)cc2C)cc1 .
65 nM

Any idea what IC50 was measured for Cc1cccc(S(=O)(=O)NC(=O)Nc2ncc(Br)s2)c1 ?
250 nM

The reported numbers originate from patent US7868030B2.
